# System: NCI-H1792 (Lung Adenocarcinoma)
# assay-remarks: combination Emax (second highest fraction inhibited in the dose matrix, 72 h); higher = more inhibition; extreme values may be limits of the assay
Readings of combination Emax for the listed compounds
// print number alone

// worked examples, combination Emax included
- compound: "Cc1c2c(nn1C)CSCc1cc(n(C)n1)CSc1cc(c3ccccc3c1)OCCCc1c(C(=O)O)n(C)c3c-2c(Cl)ccc13 [AZD5991] + CC1(C)CCC(CN2CCN(c3ccc(C(=O)NS(=O)(=O)c4ccc(NCC5CCOCC5)c([N+](=O)[O-])c4)c(Oc4cnc5[nH]ccc5c4)c3)CC2)=C(c2ccc(Cl)cc2)C1 [Venetoclax] (first compound max 1 µM, 7x7, partner max 1 µM)"
  measured-result: 0.379
- compound: "Cc1c2c(nn1C)CSCc1cc(n(C)n1)CSc1cc(c3ccccc3c1)OCCCc1c(C(=O)O)n(C)c3c-2c(Cl)ccc13 [AZD5991] + C[C@@H](Nc1cc(F)cc(F)c1)c1cc(C(=O)N(C)C)cc2c(=O)cc(N3CCOCC3)oc12 [AZD8186] (first compound max 1 µM, 7x7, partner max 3 µM)"
  measured-result: 0.441

Please look up its combination Emax: Cn1cnc2c(F)c(Nc3ccc(Br)cc3Cl)c(C(=O)NOCCO)cc21 [Selumetinib] + C=CCn1c(=O)c2cnc(Nc3ccc(N4CCN(C)CC4)cc3)nc2n1-c1cccc(C(C)(C)O)n1 [AZD1775] (first compound max 10 µM, partner max 1 µM)
0.632

Please look up its combination Emax: Cc1cc2ncnn2cc1Nc1ncc2c(n1)n(C1CCOCC1)c(=O)n2C [AZD7648] + CCN(CCO)CCCOc1ccc2c(Nc3cc(CC(=O)Nc4cccc(F)c4)[nH]n3)ncnc2c1 [AZD2811] (first compound max 10 µM, 7x7, partner max 1 µM)
0.553

Please look up its combination Emax: CC(=O)Nc1cccc(-n2c(=O)n(C3CC3)c(=O)c3c(Nc4ccc(I)cc4F)n(C)c(=O)c(C)c32)c1 [Trametinib] + Cc1nc(-c2cn3c(n2)-c2ccc(-c4cnn(C(C)(C)C(N)=O)c4)cc2OCC3)n(C(C)C)n1 [Taselisib] (first compound max 1 µM, 7x7, partner max 10 µM)
1

Please look up its combination Emax: CN(CCO)CC[C@H](CSc1ccccc1)Nc1ccc(S(=O)(=O)NC(=O)c2ccc(N3CCC([C@@H](O)c4ccccc4-c4ccc(Cl)cc4)CC3)cc2)cc1S(=O)(=O)C(F)(F)F [AZD4320] + Cn1cnc2c(F)c(Nc3ccc(Br)cc3Cl)c(C(=O)NOCCO)cc21 [Selumetinib] (first compound max 1 µM, 7x7, partner max 3 µM)
0.369

Please look up its combination Emax: CCN(CCO)CCCOc1ccc2c(Nc3cc(CC(=O)Nc4cccc(F)c4)[nH]n3)ncnc2c1 [AZD2811] + C=CCn1c(=O)c2cnc(Nc3ccc(N4CCN(C)CC4)cc3)nc2n1-c1cccc(C(C)(C)O)n1 [AZD1775] (first compound max 1 µM, partner max 1 µM)
0.608

###

# Test system: U251 (Low Grade Glioma)
# assay-remarks: Bliss excess, mean over the matrix (fraction); higher = more synergy
Readings of Bliss excess for the listed compounds

- compound: "Cc1cc2ncnn2cc1Nc1ncc2c(n1)n(C1CCOCC1)c(=O)n2C [AZD7648] + C=CCn1c(=O)c2cnc(Nc3ccc(N4CCN(C)CC4)cc3)nc2n1-c1cccc(C(C)(C)O)n1 [AZD1775] (first compound max 10 µM, partner max 1 µM)"
  experimental-system: "U251 (Low Grade Glioma)"
  measured-result: -0.014
- compound: "Cc1cc2ncnn2cc1Nc1ncc2c(n1)n(C1CCOCC1)c(=O)n2C [AZD7648] + O=C(c1cc(Cc2n[nH]c(=O)c3ccccc23)ccc1F)N1CCN(C(=O)C2CC2)CC1 [Olaparib] (first compound max 10 µM, 7x7, partner max 10 µM)"
  experimental-system: "U251 (Low Grade Glioma)"
  measured-result: 0.0043
- compound: "Cc1c2c(nn1C)CSCc1cc(n(C)n1)CSc1cc(c3ccccc3c1)OCCCc1c(C(=O)O)n(C)c3c-2c(Cl)ccc13 [AZD5991] + CCN(CCO)CCCOc1ccc2c(Nc3cc(CC(=O)Nc4cccc(F)c4)[nH]n3)ncnc2c1 [AZD2811] (first compound max 1 µM, 7x7, partner max 1 µM)"
  experimental-system: "U251 (Low Grade Glioma)"
  measured-result: 0.098

Please look up its Bliss excess: CN(C)CCCOc1ccc(-c2ccc3ncc4c(c3c2)n(C2CCOCC2)c(=O)n4C)cn1 [AZD0156] + C[C@@H]1COCCN1C2=NC(=NC(=C2)C3(CC3)[S@](=N)(=O)C)C4=C5C=CNC5=NC=C4 [AZD6738] (first compound max 1 µM, 7x7, partner max 10 µM)
-0.0087

###

# Test system: WM-115 (Melanoma)
# assay-remarks: Bliss excess, mean over the matrix (fraction); higher = more synergy
Readings of Bliss excess for the listed compounds
// print number alone

- compound: "CC(=O)Nc1cccc(-n2c(=O)n(C3CC3)c(=O)c3c(Nc4ccc(I)cc4F)n(C)c(=O)c(C)c32)c1 [Trametinib] + Cc1nc(-c2cn3c(n2)-c2ccc(-c4cnn(C(C)(C)C(N)=O)c4)cc2OCC3)n(C(C)C)n1 [Taselisib] (first compound max 1 µM, 7x7, partner max 10 µM)"
  measured-result: 0.048
- compound: "C[C@@H](Nc1cc(F)cc(F)c1)c1cc(C(=O)N(C)C)cc2c(=O)cc(N3CCOCC3)oc12 [AZD8186] + CC(=O)c1c(C)c2cnc(Nc3ccc(N4CCNCC4)cn3)nc2n(C2CCCC2)c1=O [Palbociclib] (first compound max 10 µM, 7x7, partner max 10 µM)"
  measured-result: 0.0109

Please look up its Bliss excess: CN(CCO)CC[C@H](CSc1ccccc1)Nc1ccc(S(=O)(=O)NC(=O)c2ccc(N3CCC([C@@H](O)c4ccccc4-c4ccc(Cl)cc4)CC3)cc2)cc1S(=O)(=O)C(F)(F)F [AZD4320] + CN(C)CCCOc1ccc(-c2ccc3ncc4c(c3c2)n(C2CCOCC2)c(=O)n4C)cn1 [AZD0156] (first compound max 1 µM, 7x7, partner max 1 µM)
-0.0469

Please look up its Bliss excess: NC1(C(=O)N[C@@H](CCO)c2ccc(Cl)cc2)CCN(c2ncnc3[nH]ccc23)CC1 [Capivasertib] + CC(C)n1c(=O)n(C)c2cnc3cc(F)c(-c4ccc(OCCCN5CCCCC5)nc4)cc3c21 [AZD1390] (first compound max 10 µM, 7x7, partner max 0.3 µM)
-0.0368

###

# Tested on: WIL2-NS (Non-Cancerous)
# assay-remarks: Bliss excess, mean over the matrix (fraction); higher = more synergy
value-type: Bliss excess
// print number alone

// worked examples, Bliss excess included
- compound: "CC(=O)Nc1cccc(-n2c(=O)n(C3CC3)c(=O)c3c(Nc4ccc(I)cc4F)n(C)c(=O)c(C)c32)c1 [Trametinib] + Cc1nc(-c2cn3c(n2)-c2ccc(-c4cnn(C(C)(C)C(N)=O)c4)cc2OCC3)n(C(C)C)n1 [Taselisib] (first compound max 1 µM, 7x7, partner max 10 µM)"
  measured-result: 0.174
- compound: "Cn1cnc2c(F)c(Nc3ccc(Br)cc3Cl)c(C(=O)NOCCO)cc21 [Selumetinib] + CC(C)n1c(=O)n(C)c2cnc3cc(F)c(-c4ccc(OCCCN5CCCCC5)nc4)cc3c21 [AZD1390] (first compound max 10 µM, 7x7, partner max 0.3 µM)"
  measured-result: -0.0251
- compound: "NC1(C(=O)N[C@@H](CCO)c2ccc(Cl)cc2)CCN(c2ncnc3[nH]ccc23)CC1 [Capivasertib] + CC(C)n1c(=O)n(C)c2cnc3cc(F)c(-c4ccc(OCCCN5CCCCC5)nc4)cc3c21 [AZD1390] (first compound max 10 µM, 7x7, partner max 0.3 µM)"
  measured-result: -0.0379
- compound: "Cc1cc2ncnn2cc1Nc1ncc2c(n1)n(C1CCOCC1)c(=O)n2C [AZD7648] + C[C@@H]1COCCN1C2=NC(=NC(=C2)C3(CC3)[S@](=N)(=O)C)C4=C5C=CNC5=NC=C4 [AZD6738] (first compound max 10 µM, 7x7, partner max 10 µM)"
  measured-result: 0.0015
- compound: "Cc1c2c(nn1C)CSCc1cc(n(C)n1)CSc1cc(c3ccccc3c1)OCCCc1c(C(=O)O)n(C)c3c-2c(Cl)ccc13 [AZD5991] + CC(=O)O[C@H]1C(=O)[C@@]2(C)[C@H]([C@H](OC(=O)c3ccccc3)[C@]3(O)C[C@H](OC(=O)[C@H](O)[C@@H](NC(=O)c4ccccc4)c4ccccc4)C(C)=C1C3(C)C)[C@]1(OC(C)=O)CO[C@@H]1C[C@@H]2O [Paclitaxel] (first compound max 1 µM, 7x7, partner max 3 µM)"
  measured-result: -0.137
- compound: "COc1cccc(OCCCN)c1-c1cc(Nc2cnc(C#N)cn2)n[nH]1 [Prexasertib] + Cc1cc2ncnn2cc1Nc1ncc2c(n1)n(C1CCOCC1)c(=O)n2C [AZD7648] (first compound max 1 µM, 7x7, partner max 10 µM)"
  measured-result: -0.0285
- compound: "COc1nnc2ccc(N3CCC(c4ccc(OCCN5CCN(C)C(=O)[C@H]5C)cc4)CC3)nn12 [AZD5153] + CCN(CCO)CCCOc1ccc2c(Nc3cc(CC(=O)Nc4cccc(F)c4)[nH]n3)ncnc2c1 [AZD2811] (first compound max 1 µM, 7x7, partner max 1 µM)"
  measured-result: -0.0421
- compound: "C[C@@H](Nc1cc(F)cc(F)c1)c1cc(C(=O)N(C)C)cc2c(=O)cc(N3CCOCC3)oc12 [AZD8186] + CC(=O)c1c(C)c2cnc(Nc3ccc(N4CCNCC4)cn3)nc2n(C2CCCC2)c1=O [Palbociclib] (first compound max 10 µM, 7x7, partner max 10 µM)"
  measured-result: -0.0251
- compound: "C[C@@H](c1ccc2nccn2c1)n1nnc2ncc(-c3cnn(C)c3)nc21 [Savolitinib] + Cc1c2c(nn1C)CSCc1cc(n(C)n1)CSc1cc(c3ccccc3c1)OCCCc1c(C(=O)O)n(C)c3c-2c(Cl)ccc13 [AZD5991] (first compound max 1 µM, 7x7, partner max 1 µM)"
  measured-result: -0.0262
- compound: "Cc1c2c(nn1C)CSCc1cc(n(C)n1)CSc1cc(c3ccccc3c1)OCCCc1c(C(=O)O)n(C)c3c-2c(Cl)ccc13 [AZD5991] + Cn1cnc2c(F)c(Nc3ccc(Br)cc3Cl)c(C(=O)NOCCO)cc21 [Selumetinib] (first compound max 1 µM, 7x7, partner max 3 µM)"
  measured-result: -0.0263

Please look up its Bliss excess: NC1(C(=O)N[C@@H](CCO)c2ccc(Cl)cc2)CCN(c2ncnc3[nH]ccc23)CC1 [Capivasertib] + Cn1cnc2c(F)c(Nc3ccc(Br)cc3Cl)c(C(=O)NOCCO)cc21 [Selumetinib] (first compound max 10 µM, 7x7, partner max 10 µM)
0.0482

Please look up its Bliss excess: CC1(C)CCC(CN2CCN(c3ccc(C(=O)NS(=O)(=O)c4ccc(NCC5CCOCC5)c([N+](=O)[O-])c4)c(Oc4cnc5[nH]ccc5c4)c3)CC2)=C(c2ccc(Cl)cc2)C1 [Venetoclax] + C=CCn1c(=O)c2cnc(Nc3ccc(N4CCN(C)CC4)cc3)nc2n1-c1cccc(C(C)(C)O)n1 [AZD1775] (first compound max 1 µM, partner max 1 µM)
0.054

Please look up its Bliss excess: COc1cc2c(cc1OCCCCCOc1cc3c(cc1OC)C(=O)N1C=C(C)C[C@H]1C=N3)N=C[C@@H]1CC(C)=CN1C2=O [SG3199] + O=C(c1cc(Cc2n[nH]c(=O)c3ccccc23)ccc1F)N1CCN(C(=O)C2CC2)CC1 [Olaparib] (first compound max 0.001 µM, 7x7, partner max 10 µM)
-0.0239
